Kd by entry:
target: human TGFßRII (antigen of the Octet experiments) (human, UniProt P37173 23-166); experiment: BLI (Octet)
Sequence (P37173 23-166): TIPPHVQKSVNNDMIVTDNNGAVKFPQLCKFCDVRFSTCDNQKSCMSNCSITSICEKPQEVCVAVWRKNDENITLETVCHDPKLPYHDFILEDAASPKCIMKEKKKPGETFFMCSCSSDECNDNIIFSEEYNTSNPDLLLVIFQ
Give a bare numeral; the unit nM is implied.

Consider the reported Kd for these binders:
INSERT INTO assay_data (binder, unit_info, observed_result) VALUES
  ('H1 L1.46 XENP34609 (antibody, V domains shown) VH: QLQVQESGPGLVKPSETLSLTCTVSGGSISNSYFSWGWIRQPPGKGLEWIGSFYYGEKTYYNPSLKSRATISIDTSKSQFSLKLSSVTAADTAVYYCPRGPTMIRGVIDSWGQGTLVTVSS VL: EIVLTQSPATLSLSPGERATLSCRASQSVRSYLAWYQQKPGQAPRLLIYDASNRATGIPARFSGSGSGTDFTLTISSLEPEDFAVYYCQQRSSWPPTFGQGTKVEIK', 'nM', 0.666),
  ('H1 L1.55 XENP34618 (antibody, V domains shown) VH: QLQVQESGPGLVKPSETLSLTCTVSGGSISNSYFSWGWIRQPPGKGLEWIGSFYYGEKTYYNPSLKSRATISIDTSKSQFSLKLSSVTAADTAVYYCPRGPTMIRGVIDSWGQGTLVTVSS VL: EIVLTQSPATLSLSPGERATLSCRASQSVRSYLAWYQQKPGQAPRLLIYDASNRATGIPARFSGSGSGTDFTLTISSLEPEDFAVYYCQQRSNWPITFGQGTKVEIK', 'nM', 38);

Exercise: Param item = H1 L1.61 XENP34624 (antibody, V domains shown) VH: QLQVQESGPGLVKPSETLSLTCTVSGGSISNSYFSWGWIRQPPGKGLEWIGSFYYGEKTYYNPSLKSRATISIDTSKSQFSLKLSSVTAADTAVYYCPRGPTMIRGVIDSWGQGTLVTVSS VL: EIVLTQSPATLSLSPGERATLSCRASQSVRSYLAWYQQKPGQAPRLLIYDASNRATGIPARFSGSGSGTDFTLTISSLEPEDFAVYYCQQRSNWPPTFGQGTKLEIK ; retrieve measured Kd.
Solution: 0.642
